Molecular target: HLA-A*01:01
Experiment: IEDB peptide-MHC binding, purified MHC/competitive/radioactivity; filed as Kd, often an IC50 or EC50 that approximates it; bounds were set here for any values at or beyond the usual limits of such assays
Conditions: source organism: Mammarenavirus juninense
measured-parameter: Kd (nM)
Write down the numeric answer in nM and omit the unit.

Quick one: Kd for LFQFFVFLV ? 531

====

Molecular target: HLA-B*58:01
Assay: IEDB peptide-MHC binding, purified MHC/competitive/radioactivity; filed as Kd, often an IC50 or EC50 that approximates it; bounds were set here for any values at or beyond the usual limits of such assays
Settings: source organism: Dengue virus 2 Jamaica/1409/1983
measured-parameter: pKd
Please report pKd as the negative decimal logarithm of the molar concentration, giving only the number.

{"construct-sequence": "KSYAQMWTL", "measured-parameter": "pKd", "readout-value": 8.20}
{"construct-sequence": "ERSWNSGHEW", "measured-parameter": "pKd", "readout-value": 6.87}

Turning now to a further record.
Quick one: pKd for HSSAAQRRGR ? 4.95
